# MEASURED ON: human 11βHSD1 (Homo sapiens, UniProt P28845)
# Construct: clarified lysate, not purified
# Sequence (P28845 whole entry): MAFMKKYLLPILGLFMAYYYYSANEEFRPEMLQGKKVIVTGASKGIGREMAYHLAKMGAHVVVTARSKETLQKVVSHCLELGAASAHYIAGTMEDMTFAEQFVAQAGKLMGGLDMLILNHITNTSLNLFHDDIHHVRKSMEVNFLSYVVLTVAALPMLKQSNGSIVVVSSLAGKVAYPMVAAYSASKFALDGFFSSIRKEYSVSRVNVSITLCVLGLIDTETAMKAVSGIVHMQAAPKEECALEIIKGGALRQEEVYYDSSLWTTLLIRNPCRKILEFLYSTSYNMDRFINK
# ASSAY NAME: Enzymatic assay of 11βHSD1 (Scintillation Proximity Assay, clarified lysates)
# CONDITION SET: SPA, HEK-293 lysate expressing full-length human 11βHSD1, 25 nM 3H-cortisone, 400 μM NADPH, 37° C., one hour
pIC50: −log10 of the molar value.
MEASUREMENT TYPE: pIC50

Lab note: measured pIC50 of CC(=O)N1CCC2(CC(C3(c4ccc(Cl)cc4)CC3)=NO2)C1 (stereo not shown) [Example 1] was > 5.30
